Data provenance is patent US11992494B2.

- MEASUREMENT_TARGET: UniProt P25105
- Sequence (P25105 whole entry): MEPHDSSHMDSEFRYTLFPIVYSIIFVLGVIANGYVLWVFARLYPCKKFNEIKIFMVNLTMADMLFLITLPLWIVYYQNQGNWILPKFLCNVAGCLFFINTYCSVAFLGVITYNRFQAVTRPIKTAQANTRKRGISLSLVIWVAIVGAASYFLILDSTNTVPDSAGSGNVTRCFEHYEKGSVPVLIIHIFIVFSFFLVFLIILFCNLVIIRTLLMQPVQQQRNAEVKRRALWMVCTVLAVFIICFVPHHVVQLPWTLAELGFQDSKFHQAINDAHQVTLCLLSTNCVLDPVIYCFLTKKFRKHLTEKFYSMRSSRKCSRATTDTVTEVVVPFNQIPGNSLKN
- EXPERIMENT: cellular HTRF IP1 assay: inhibition of PAFR activation by PAF C-16 ligand (endpoint assay)
- Type: cell-based
- Design: expressed in transfected cells; host or cells: HEK293
- CONDITION_LABEL: HEK293 cells overexpressing human PAFR; PAF ligand 11 nM; Table 2
REPORTED_PROPERTY: IC50 (nM)

COMPOUND | REPORTED_PROPERTY | UNIT_DESCRIPTOR | VALUE_OBSERVED
Cc1nnc2n1-c1sc3c(c1C(c1ccccc1Cl)=NC21CC1)C[C@H](C(=O)N1CCOCC1)C3 [Example 114] | IC50 | nM | 7.2
Cc1nnc2n1-c1sc3c(c1C(c1ccccc1Cl)=NC21CC1)C[C@H](C(=O)NC1CCC(C)(C)OC1)C3 (stereo partly shown) [Example 94] | IC50 | nM | 6.4
Cc1nnc2n1-c1sc3c(c1C(c1ccccc1Cl)=NC21CC1)C[C@H](C(=O)NC1CCc2ncccc2C1)C3 (stereo partly shown) [Example 97] | IC50 | nM | 8.9
Cc1nnc2n1-c1sc3c(c1C(c1ccccc1Cl)=NC21CC1)C[C@H](C(=O)NC1CC1(C)C)C3 (stereo partly shown) [Example 40] | IC50 | nM | 1.9
Cc1nnc2n1-c1sc3c(c1C(c1ccccc1Cl)=NC21CC1)C[C@H](C(=O)N[C@H]1CCOC1)C3 [Example 78] | IC50 | nM | 15

(1) Cc1nnc2n1-c1sc3c(c1C(c1ccccc1Cl)=NC21CC1)C[C@H](C(=O)NC1(C)CCOCC1)C3 [Example 45]
(2) Cc1nnc2n1-c1sc3c(c1C(c1ccccc1Cl)=NC21CC1)C[C@H](C(=O)N[C@@H]1c2ccccc2C[C@@H]1O)C3 [Example 50]
In the pair 1 and 2 , the larger recorded IC50 belongs to which? Refer to your chosen item by its label in the answer. 1

(A) Cc1nnc2n1-c1sc3c(c1C(c1ccccc1Cl)=NC21CC1)C[C@H](C(=O)N1C[C@@H](C)O[C@@H](C)C1)C3 [Example 13]
(B) Cc1nnc2n1-c1sc3c(c1C(c1ccccc1Cl)=NC21CC1)C[C@H](C(=O)N[C@@H]1CCOC1)C3 [Example 95]
(C) Cc1nnc2n1-c1sc3c(c1C(c1ccccc1Cl)=NC21CC1)C[C@H](C(=O)N[C@@H]1COC[C@@H]1C)C3 [Example 30]
(D) Cc1nnc2n1-c1sc3c(c1C(c1ccccc1Cl)=NC21CC1)C[C@H](C(=O)NC1(c2ccc(Cl)cn2)CC1)C3 [Example 35]
Order these by IC50, descending, and give the full ranking. Output spec: labels arranged per the requested ranking. B, C, A, D
